# target.system: UniProt:P24941
# test.name: CDK2 NanoBiT assay (HiBiT-tagged CDK2 degradation)
# Type: cell-based
# run.conditions: HEK293, HEK293 clonal line, C-terminal HiBiT tag on CDK2, LgBiT; 24 hours
parameter: Dmax

(Q) Give Dmax for O=C1CCC(c2c(F)cc(N3C[C@H](NC(=O)OCC4CC5(CCC5)C4)CC3=O)cc2F)C(=O)N1 (stereo partly shown)
(A) 50 to 80%

(Q) Give Dmax for CN(C(=O)C12CC(OC(=O)NC3CN(c4cc(F)c(C5CCC(=O)NC5=O)c(F)c4)C3)(C1)C2)C1CC1 (stereo not shown)
(A) 50 to 80%

(Q) Give Dmax for Cc1ccccc1N(C)C(=O)C12CC(OC(=O)NC3CN(c4cc(F)c(C5CCC(=O)NC5=O)c(F)c4)C3)(C1)C2 (stereo not shown)
(A) 50 to 80%

(Q) Give Dmax for C[C@@H]1[C@@H](Nc2nnc(-c3ccc(OC(F)(F)F)cc3)o2)CN1c1cc(F)c(C2CCC(=O)NC2=O)c(F)c1 (stereo partly shown)
(A) 50 to 80%

(Q) Give Dmax for Cc1cc(N2CC(NC(=O)OC3CN(C(=O)N(C)C4CC4)C3)C2)cc(C)c1C1CCC(=O)NC1=O (stereo not shown)
(A) 10 to 50%

(Q) Give Dmax for CN(C(=O)N1CC(OC(=O)NC2CN(c3cc(F)c(C4CCC(=O)NC4=O)c(F)c3)C2)C1)c1ccc(F)cc1 (stereo not shown)
(A) > 80%

(Q) Give Dmax for N#Cc1cc(C2CCC(=O)NC2=O)ccc1N1CC(Nc2nnc(C3CC4(CCC4)C3)o2)C1 (stereo not shown)
(A) 50 to 80%

(Q) Give Dmax for Cn1c(N2CC(OC(=O)NC3CN(c4cc(F)c(C5CCC(=O)NC5=O)c(F)c4)C3)C2)nc2ccccc21 (stereo not shown)
(A) 50 to 80%

(Q) Give Dmax for CN(C(=O)N1CC(OC(=O)NC2CN(c3cc(F)c(C4CCC(=O)NC4=O)c(F)c3)C2)C1)c1cccc(Cl)c1 (stereo not shown)
(A) > 80%

(Q) Give Dmax for Cc1cccnc1N1CC(OC(=O)NC2CN(c3cc(F)c(C4CCC(=O)NC4=O)c(F)c3)C2)C1 (stereo not shown)
(A) 50 to 80%

(Q) Give Dmax for CN(C(=O)C12CC(OC(=O)NC3CN(c4cc(F)c(C5CCC(=O)NC5=O)c(F)c4)C3)(C1)C2)c1ccc(F)cc1 (stereo not shown)
(A) 50 to 80%

(Q) Give Dmax for O=C1CCC(c2c(F)cc(N3CC(NC(=O)OCC4CC5(CCC5)C4)C3)cc2F)C(=O)N1 (stereo not shown)
(A) > 80%

(Q) Give Dmax for O=C1CCC(c2c(F)cc([C@@H]3C[C@H]3NC(=O)OCC3CC4(CCC4)C3)cc2F)C(=O)N1 (stereo partly shown)
(A) > 80%
